Data provenance: the supplement of paper PMC6757056

B1: library; a variant is named by its letters at N, in order (parent)
chain: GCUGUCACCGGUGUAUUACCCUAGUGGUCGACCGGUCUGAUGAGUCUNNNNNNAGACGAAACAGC

Variants of: B1
Measurement protocol: normalized RNA/DNA level without ligand (relative to sTRSVctl = 100) (log10 (% of sTRSVctl)); ligand: hypoxanthine (xanthine aptamer); higher = less ribozyme self-cleavage, higher mRNA level
Setup conditions: HEK293T, reporter: mCherry (pCS4076), ligand present: no
Quantity: normalized RNA/DNA level without ligand (log10)
# output: bare number, no unit

Consider the following illustrative entries.
GCUAUU    1.89
ACCUGG    1.55
ACGGCC    1.88
CAAUUG    1.89
CGAAUC    1.96
UAGAGA    1.39
CACCGG    1.58
CUCAAC    1.93
CUUAAA    1.8
GACCCA    1.83

Complete the entry with normalized RNA/DNA level without ligand (log10) for GGUCUU
1.94

Complete the entry with normalized RNA/DNA level without ligand (log10) for UAGGCC
1.95

Complete the entry with normalized RNA/DNA level without ligand (log10) for GAGGCC
1.93

Complete the entry with normalized RNA/DNA level without ligand (log10) for CUAACU
1.87

Complete the entry with normalized RNA/DNA level without ligand (log10) for ACAUUG
1.53

Complete the entry with normalized RNA/DNA level without ligand (log10) for GCUGGU
1.82

Complete the entry with normalized RNA/DNA level without ligand (log10) for UUGCUU
1.94

Complete the entry with normalized RNA/DNA level without ligand (log10) for CGCGUG
1.73

Complete the entry with normalized RNA/DNA level without ligand (log10) for GAACUA
1.81

Complete the entry with normalized RNA/DNA level without ligand (log10) for AUAAUC
1.88

Complete the entry with normalized RNA/DNA level without ligand (log10) for AGUGAG
1.28

Complete the entry with normalized RNA/DNA level without ligand (log10) for UAGGUA
1.84
